Target: Bifunctional epoxide hydrolase 2 (Homo sapiens);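 note: recombinant enzyme with CMNPC substrate, fluorescence readout of 6-methoxy-2-naphthaldehyde formed over a 10 min reaction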
Sequence (P34913 whole entry): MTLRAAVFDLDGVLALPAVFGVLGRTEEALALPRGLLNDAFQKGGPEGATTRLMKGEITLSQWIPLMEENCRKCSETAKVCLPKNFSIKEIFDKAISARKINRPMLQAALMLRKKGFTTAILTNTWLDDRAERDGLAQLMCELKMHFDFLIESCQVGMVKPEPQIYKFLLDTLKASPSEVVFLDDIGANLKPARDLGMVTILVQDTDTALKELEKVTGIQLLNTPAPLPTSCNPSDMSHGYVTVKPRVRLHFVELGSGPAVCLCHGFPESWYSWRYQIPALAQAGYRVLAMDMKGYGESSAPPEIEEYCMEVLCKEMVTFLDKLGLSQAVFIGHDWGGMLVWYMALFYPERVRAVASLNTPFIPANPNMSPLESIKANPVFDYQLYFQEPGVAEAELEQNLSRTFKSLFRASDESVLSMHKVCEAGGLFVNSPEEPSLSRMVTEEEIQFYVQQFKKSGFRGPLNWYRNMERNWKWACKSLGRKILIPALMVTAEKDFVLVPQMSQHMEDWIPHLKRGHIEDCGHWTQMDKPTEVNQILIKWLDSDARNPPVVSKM
pIC50: −log10 of the molar value.
The following compounds are shown together with reported pIC50 values.

compound	pIC50
O=C(Nc1cccc(OC(F)F)c1)NC12CC3CC(CC(C3)C1)C2	8.59
CCOCCOCCOc1ccc(C(OC(=O)CCCNC(=O)NC23CC4CC(CC(C4)C2)C3)c2ccccc2)cc1 (stereo not given)	8.29
O=C(Nc1cccc(C(=O)Nc2ccc(N3CCOCC3)cc2)c1)NC12CC3CC(CC(C3)C1)C2	7.13
O=C(NC12CC3CC(CC(C3)C1)C2)N[C@H]1CC[C@H](OC(=O)c2ccccc2)CC1	9.00
O=C(Nc1cccc(C(F)(F)F)c1)NC1CCCCC1	8.06
